A collection of molecules and their measured pIC50
Target: Polyunsaturated fatty acid 5-lipoxygenase (Rattus norvegicus)
Sequence (P12527 whole entry): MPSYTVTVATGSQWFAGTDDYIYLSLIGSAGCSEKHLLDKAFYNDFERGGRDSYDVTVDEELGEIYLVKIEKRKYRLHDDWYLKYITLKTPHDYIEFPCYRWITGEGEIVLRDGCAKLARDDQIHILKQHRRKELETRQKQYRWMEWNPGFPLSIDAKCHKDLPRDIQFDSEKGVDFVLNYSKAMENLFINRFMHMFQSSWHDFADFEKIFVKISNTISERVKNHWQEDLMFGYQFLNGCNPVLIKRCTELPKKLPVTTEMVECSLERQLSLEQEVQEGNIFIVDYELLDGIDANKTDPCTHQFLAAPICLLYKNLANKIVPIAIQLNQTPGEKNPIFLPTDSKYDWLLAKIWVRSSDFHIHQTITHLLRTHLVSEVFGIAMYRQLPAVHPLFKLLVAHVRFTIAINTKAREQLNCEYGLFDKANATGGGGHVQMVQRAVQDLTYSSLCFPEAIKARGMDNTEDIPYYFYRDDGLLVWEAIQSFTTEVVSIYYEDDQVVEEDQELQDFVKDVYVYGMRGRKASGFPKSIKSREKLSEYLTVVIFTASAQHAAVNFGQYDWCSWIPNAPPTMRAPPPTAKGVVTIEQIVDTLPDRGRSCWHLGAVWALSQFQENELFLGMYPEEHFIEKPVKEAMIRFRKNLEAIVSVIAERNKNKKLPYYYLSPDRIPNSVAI
Assay: Inhibition of rat neutrophil 5- Lipoxygenase (5-LO),
Settings: read-out: I50
// returns pIC50 (minus log10 of molar concentration), number only

Example entries begin here.
molecule="CCCCCC(O)c1cccc(OCc2cccc(C(=O)O)n2)c1 (centres undefined)" measured_property=pIC50 quantitative_readout=5.30
molecule="CCCCCC(O)c1cccc(OCc2cccc(C(=O)O)c2)c1 (centres undefined)" measured_property=pIC50 quantitative_readout=4.69
molecule="CCCCCC(O)c1cccc(OCc2cccc(C(=O)OC)c2)c1 (centres undefined)" measured_property=pIC50 quantitative_readout=6.00

Inquiry: Please indicate pIC50 recorded for CCCCC(C)(C)C(=O)c1cccc(OCc2ccccc2)c1
Reply text: 5.12

---

A collection of molecules and their measured inhibition at 30 µM
Organism: Cavia porcellus
Test: Percent inhibition of LTC4-induced contraction in guinea pig parenchymal strip test, at a concentration of 30 uM
Type: functional
Report as a plain number; the unit % is understood.

Example entries begin here.
molecule="CCCCCC(NC)c1cccc(OCc2ccccc2)c1 (stereo not given)" measured_property="inhibition at 30 µM" unit_string=% quantitative_readout=50
molecule="CCCCC(O)c1cccc(OCc2ccccc2C(=O)OC)c1 (stereo not given)" measured_property="inhibition at 30 µM" unit_string=% quantitative_readout=35
molecule="CCCCCC(O)c1cccc(OCc2cccc(C(=O)O)c2)c1 (stereo not given)" measured_property="inhibition at 30 µM" unit_string=% quantitative_readout=30
molecule="CCCCCC(O)c1cccc(Oc2ccccc2)c1 (stereo not given)" measured_property="inhibition at 30 µM" unit_string=% quantitative_readout=50
molecule="CCCCCC(O)c1cccc(OCc2ccc3ccccc3c2)c1 (stereo not given)" measured_property="inhibition at 30 µM" unit_string=% quantitative_readout=10
molecule="CCCCCC(O)c1cccc(/C=C\\c2ccccc2)c1 (stereo not given)" measured_property="inhibition at 30 µM" unit_string=% quantitative_readout=5
molecule="CCCCCC(C)(O)c1cccc(OCc2ccccc2)c1 (stereo not given)" measured_property="inhibition at 30 µM" unit_string=% quantitative_readout=10
molecule=CCCC/C=C/c1ccc(OCc2cccc(C(=O)OC)c2)cc1 measured_property="inhibition at 30 µM" unit_string=% quantitative_readout=26
molecule="CCCCC(C)C(O)c1cccc(OCc2ccccc2)c1 (stereo not given)" measured_property="inhibition at 30 µM" unit_string=% quantitative_readout=0
molecule=CCCCCC(=O)c1cccc(/C=C\c2ccccc2)c1 measured_property="inhibition at 30 µM" unit_string=% quantitative_readout=-20

Inquiry: Please indicate inhibition at 30 µM recorded for CCCCC(C)(C)C(=O)c1cccc(OCc2ccccc2)c1
Reply text: 11

Inquiry: Please indicate inhibition at 30 µM recorded for CCCCCC(=O)c1cccc(OCc2cccc(C(N)=O)c2)c1
Reply text: 5

Inquiry: Please indicate inhibition at 30 µM recorded for CCCCCC(O)c1cccc(/C=C/c2ccccc2)c1 (stereo not given)
Reply text: 12

Inquiry: Please indicate inhibition at 30 µM recorded for CCCCC(C)(C)C(C)(O)c1cccc(OCc2ccccc2)c1 (stereo not given)
Reply text: 10

Inquiry: Please indicate inhibition at 30 µM recorded for CCCCCC(O)c1cccc(OCc2cccc(CN)c2)c1 (stereo not given)
Reply text: 0

---

Molecular target: Polyunsaturated fatty acid 5-lipoxygenase (Rattus norvegicus)
Experiment: IC50 for inhibition of rat neutrophil 5-lipoxygenase (5-LO)
Measured Property: IC50 (µM)
Report as a plain number; the unit µM is understood.

compound="CCCCCC(O)c1cccc(OCc2ccc(OCC(=O)OC)cc2)c1 (centres undefined)" quantitative_readout=4.8
compound="CCCCCC(O)c1cccc(/C=C/c2ccccc2)c1 (centres undefined)" quantitative_readout=4.5
compound="CCCCCC(O)c1cccc(Oc2ccc3ccccc3n2)c1 (centres undefined)" quantitative_readout=0.35

Inquiry: Please indicate IC50 recorded for CCCCCC(O)c1cccc(OCc2cccc(CC(=O)OC)c2)c1 (centres undefined)
Reply text: 5.8

Inquiry: Please indicate IC50 recorded for CCCCCC(O)c1cccc(OCc2cccc(CN)c2)c1 (centres undefined)
Reply text: 36

Inquiry: Please indicate IC50 recorded for CCCCCC(O)c1cccc(OCc2ccncc2)c1 (centres undefined)
Reply text: 2.7

Inquiry: Please indicate IC50 recorded for CCCCCC(OC1CCCCO1)c1cccc(OCc2cccc(C(=O)OC)c2)c1 (centres undefined)
Reply text: 23
